The measured values listed here are drawn from ChEMBL document CHEMBL4007397.

- PROTOCOL_NOTES: Solubility of the crystalline form of compound in fasted state simulated intestinal fluid
- Type: physicochemical

QUERY_SMILES	solubility thermodynamic
CS(=O)(=O)c1ccc(-c2cnc(NCc3ccco3)n3cnnc23)cc1	35 µg/mL

* * *

- PROTOCOL_NOTES: Total clearance in Sprague-Dawley rat at 1 mg/kg, iv or 2 mg/kg, po by LC-MS/MS analysis
- Assay type: ADME, organism-based
- ASSAY_CONDITIONS: in vivo

QUERY_SMILES	SCALE_UNIT	clearance
CS(=O)(=O)c1ccc(-c2cnc(NCc3ccco3)n3cnnc23)cc1	mL/min/kg	14

* * *

- SUBJECT_OF_TEST: Polycomb protein EED (Homo sapiens)
- Sequence (O75530 whole entry): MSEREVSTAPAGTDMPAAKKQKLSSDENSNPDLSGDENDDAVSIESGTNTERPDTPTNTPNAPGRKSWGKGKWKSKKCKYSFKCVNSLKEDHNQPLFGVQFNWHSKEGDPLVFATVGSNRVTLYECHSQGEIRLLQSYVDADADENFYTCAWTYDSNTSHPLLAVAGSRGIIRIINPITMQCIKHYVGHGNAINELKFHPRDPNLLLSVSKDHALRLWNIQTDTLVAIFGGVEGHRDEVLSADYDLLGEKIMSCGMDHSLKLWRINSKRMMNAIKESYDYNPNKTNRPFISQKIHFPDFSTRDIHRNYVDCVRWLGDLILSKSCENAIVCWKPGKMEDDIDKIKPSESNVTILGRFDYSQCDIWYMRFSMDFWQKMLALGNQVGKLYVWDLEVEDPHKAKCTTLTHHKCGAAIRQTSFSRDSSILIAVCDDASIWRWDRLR
Simple rule here: IC50 less than 20 nM is TRUE, otherwise FALSE.

QUERY_SMILES	CLASS_NAME
c1coc(CNc2ncc(-c3ccc(CN4CCCC4)cc3)c3nncn23)c1	TRUE
CN(C)Cc1ccc(-c2cc(C#N)c(NCc3sccc3Cl)n3cnnc23)cc1	FALSE
Cc1ccsc1CNc1ncc(-c2ccc(CN(C)C)cc2)c2nncn12	FALSE
Cc1ccc(CNc2ncc(-c3ccc(CN(C)C)cc3)c3nncn23)s1	FALSE
CN(C)Cc1ccc(-c2cnc(NCc3cnco3)n3cnnc23)cc1	FALSE
CN(C)Cc1ccc(-c2cc(C#N)c(NCc3ccoc3)n3cnnc23)cc1	TRUE
CN(C)Cc1ccc(-c2cnc(NCc3ccccc3)n3cnnc23)cc1	FALSE
N#Cc1c2c(c3nncn3c1Cl)CN(Cc1ccccc1)CC2	FALSE
CN(C)Cc1ccc(-c2cnc(NCc3sccc3Cl)n3cnnc23)cc1	FALSE
